quantity: melting point

Exercise: Reported melting point, compound O=C(O)CNC(=O)C1(NC(=O)Cc2ccc(OCc3ccccc3)cc2)Cc2ccc(-c3ccc(Cl)cc3)cc2C1 (centres unmarked) : ____
Solution: 217 to 218 °C

Exercise: Reported melting point, compound O=C(Cc1ccc(OCc2ccncc2)cc1)NC1(C(=O)O)Cc2ccc(-c3ccc(Cl)cc3)cc2C1 (centres unmarked) : ____
Solution: 128 °C

Exercise: Reported melting point, compound O=C(NC(Cc1ccc(OCc2ccccc2)cc1)c1nnn[nH]1)c1cn2cc(-c3ccc(Cl)cc3)ccc2n1 (centres unmarked) : ____
Solution: 241 °C

Exercise: Reported melting point, compound O=C(N[C@@H](Cc1ccc(OCc2ccoc2)cc1)C(=O)O)c1cc2cc(-c3ccc(Cl)cc3)ccc2o1 : ____
Solution: 211 to 212 °C

Exercise: Reported melting point, compound O=C(Cc1ccc(NC(=O)c2ccc(F)cc2)cc1)NC1(C(=O)O)Cc2ccc(-c3ccc(Cl)cc3)cc2C1 (centres unmarked) : ____
Solution: 252 to 254 °C

Values were extracted from patent US20100130737A1.
